Biological target: cRABP (cellular Retinoic Acid-Binding Protein) (Rattus norvegicus, UniProt P62966)
Sequence (P62966 whole entry): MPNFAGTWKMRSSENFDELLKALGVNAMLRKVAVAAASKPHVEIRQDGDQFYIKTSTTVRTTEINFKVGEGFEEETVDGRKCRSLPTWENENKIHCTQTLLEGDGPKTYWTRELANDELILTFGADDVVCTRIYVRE
Test: Saturation test: fixation of ligand on soluble cRABP of rat testicle homogenate
Set-up: a homogenate of rat testicles (organ rich in cRABP); from tissue; host or cells: rat testicles (homogenate), inferred from the saturation test
Conditions: saturation test, rat testicle homogenate, 2 hours incubation, nonlinear regression (Clark equation); read-out: Kd (dissociation constant at equilibrium)
Procedure: The total fixation (nonspecific +specific) (curva a), is obtained by incubation of increasing concentrations (up to a maximum of 50 nM) of the compound of the present invention with a constant quantity (0.3 ml) of a homogenate of rat testicles (organ rich in cRABP). […] An incubation time for 2 hours is necessary for the establishment of equilibrium conditions. […]
measurement_label: Kd (nM)
Answer with a number only, understood to be in nM.

Looking up [3H]c1cc2c(cc1-c1cc3ccc(C(=O)O)cc3s1)C(C)(C)CCC2(C)C , I see its Kd listed as 2.7

----------
Target: cRABP (cellular Retinoic Acid-Binding Protein) (Rattus norvegicus)
Assay: Competition test of cold ligand against radioactive ligand for fixation on cRABP
Conditions: Kd of the cold ligand, radioactive ligand: tritiated retinoic acid; calculated from IC50 of competition curve
measurement_label: pKd
The quantity pKd is defined as the negative base-10 logarithm of the molar concentration.

Looking up C/C(=C\c1ccc(C(=O)O)cc1)c1ccc2c(c1)C(C)(C)CCC2(C)C , I see its pKd listed as 7.70
